- System: PKC mediated IL-2 production in human primary T cells
- Method summary: IL-2 ELISA, human primary T cell, anti CD3+CD28+ (whole cell functional assay for PKC mediated IL-2 production)
- Assay type: cell-based
- Experimental context: human primary T cells stimulated with anti-CD3 + anti-CD28, 24 h, IL-2 by ELISA, 8 pt, read-out: IL2 ELISA, Human primary T cell, anti-CD3 + CD28, 8 pt (IC50)
pIC50: −log10 of the molar value.
Reported property: pIC50

Some solved entries appear below for comparison.
| Compound | Target under test | Numeric result |
| --- | --- | --- |
| Cc1nnnn1-c1cc(Nc2ncc(F)c(NC[C@@H]3CCCN4CCCC[C@H]34)n2)c(F)cc1C1CC1 | PKC mediated IL-2 production in human primary T cells | 7.18 |
| N#Cc1cc(Nc2ncc(C#N)c(NC[C@@H]3CCCN4CCCC[C@H]34)n2)ccc1C1CC1 | PKC mediated IL-2 production in human primary T cells | 8.03 |
| CC1(C)Oc2cc(Nc3ncc(F)c(NC[C@@H]4CCCN5CCCC[C@H]45)n3)ccc2N(CCCF)C1=O | PKC mediated IL-2 production in human primary T cells | 6.07 |
| COc1ccc(Nc2ncc(C)c(NC[C@@H]3CCCN4CCCC[C@H]34)n2)cc1-n1nnnc1C | PKC mediated IL-2 production in human primary T cells | 6.34 |
| COc1cnc(Nc2cc(-n3nnnc3C)ccc2F)nc1NC[C@@H]1CCCN2CCCC[C@H]12 | PKC mediated IL-2 production in human primary T cells | 5.19 |
| Cc1ccc(Nc2ncc(N(C)C)c(NC[C@@H]3CCCN4CCCC[C@H]34)n2)cc1C#N | PKC mediated IL-2 production in human primary T cells | 5.41 |

I = N#Cc1cc(Nc2ncc(Cl)c(NCC3CCCN4CCCCC34)n2)ccc1C1CC1 (centres unmarked)
II = Cn1nnn(-c2cc(Nc3nccc(NC[C@@H]4CCCN5CCCC[C@H]45)n3)c(F)cc2C2CC2)c1=O
Data request: Sorting by pIC50 in descending order, would I or II appear first? Let me know the label of the one you choose.
Data returned: I
